tested-target: human IgG1 antibody (#I5154; Sigma-Aldrich) (human)
assay-remarks: SPR, single cycle kinetics, IgG1 chip
Just a reminder that ties go to False: only Kd strictly below 10 nM counts as True.

- binder: "R2-18 rabbit-derived single-chain antibody-His (scFv) scFv: QSLEESGGRLVTPGTPLTLTCTVSGIDLSSNAMTWVRQAPGEGLEWIGTISTGGSTYFASWAKGRFTISKTSTTVDLKITSPTTEDTATYFCATRYDSYGYAYNYWFGTLWGPGTLVTVTSGGGGSGGGGSGGGGSELVMTQTAASVSEPVGGTVTIKCQASQNINNELAWYQQKPGQRPKLLIYDASKLASGVPSRFSGSGSGTEFTLTISGMQCDDAATYYCQSTYYDGNYVYAFGGGTEVDVKGSHHHHHH"
  class-assignment: "True"
- binder: "R1-27 rabbit-derived single-chain antibody-His (scFv) scFv: QQQLMESGGGLVTPGTPLTLTCTVSGIDLRRYAMGWVRQAPGKGLQWIGIIASGNTDYASWAKGRFTISATSTTVDLKITSSTTEDTATYFCARYSGDNGGTLNLWGPGTLATVTTGGGGSGGGGSGGGGSELVMTQTAASVSEPVGGTVTIKCQASEHIRNYLAWYQQKPGQPPKLLIYTTSNLASGVPSRFSGSGSGTEYTLTISDLECADAATYYCQNYYDISTYGNTFGGGTEVDVKGSHHHHHH"
  class-assignment: "False"
- binder: "R1-7 rabbit-derived single-chain antibody-His (scFv) scFv: QSLEESGGRLVTPGTPLTLTCTVSGIDLRRYAMGWVRQAPGKGLQWIGIIASGNTDYASWAKGRFTISATSTTVDLKITSPTTEDTATYFCARYSGDNGGTLNLWGPGTLVTVTSGGGGSGGGGSGGGGSELVMTQTAASVSEPVGGTVTIKCQASQSISSYLAWYQQKPGQPPKLLIYAASNLASGVSSRFKGSGSGTEFTLTISDLECADAATYYCQSYYSISSYGNTFGGGTEVEITGSHHHHHH"
  class-assignment: "False"
- binder: "R3-75 rabbit-derived single-chain antibody-His (scFv) scFv: QSVKESGGRLVTPGTPLTLTCTVSGIDLSSNAMSWVRQAPGEGLEWIGTISTVGKTYFASWAKGRFTISKTSTTVDLRITSPTTEDTATYFCATRYDSYGYAYNYWFGTLWGPGTLVTVTSGGGGSGGGGSGGGGSELDLTQTPPSVSGAVGGTVTIKCQASENINSELAWYQQKPGQRPKLLIYDASKLASGVPSRFSGSGSGTEYTLTISGMQCDDAATYYCQSTYYDGNYVYAFGGGTEVDVTRSHHHHHH"
  class-assignment: "True"
- binder: "R3-23 rabbit-derived single-chain antibody-His (scFv) scFv: QSVKESEGRLVTPGTPLTLTCTVSGFSLSRYAVSWVRQAPGKGLEWIGIIGSGGSTSYATWARGRFTISKTSTTVDLKITSPTTEDTVTYFCGSYYDSHGYAYVSLWGPGTLVTVTSGGGGSGGGGSGGGGSELVLTQTPSPVSGAVGGTVTINCQASQSISTALAWYQQKPGQPPKLLIYSASTLASGVSSRFKGSGSGTGFTLTISDLECADAATYYCQSYYGSSSDNAFGGGTEVVIKRSHHHHHH"
  class-assignment: "False"

Where do these numbers come from? They come from patent US20180327803A1.
